System: MDA-MB-231 (ATCC)
Experiment notes: IC50 on cell monolayers (MTT assay)
Assay type: cell-based, human
Condition set: pH 7.4; 6-hour incubation; read-out: IC50 of free cisplatin
Outcome measure: IC50 (µM)
Note: unit µM is implicit; provide only the numeric part.

The molecule N.N.[Cl][Pt][Cl] [free cisplatin, cis-diamminedichloroplatinum (II)] showed IC50 equal to 45.2

---

Test system: MDA-MB-231 (PRI3)
Experiment notes: IC50 on cell monolayers (MTT assay)
Format: cell-based, human
Condition set: pH 7.4; 6-hour incubation; read-out: IC50 of free cisplatin
Outcome measure: IC50
# do not omit the unit; it follows the number

Kindly note: MDA-MB-231 (PRI3), N.N.[Cl][Pt][Cl] [free cisplatin, cis-diamminedichloroplatinum (II)] , IC50 value reported: 32.4 µM
